target: panel of 442 kinases (Homo sapiens); construct: purchased KINOMEscan; assay type: binding; conditions: Compound Concentration 10 µM
// reported KINOMEscan: NEK1 for each item listed
Reported endpoint: KINOMEscan: NEK1

COc1cc(C(=O)N2CCC(N3CCN(C)CC3)CC2)ccc1Nc1ncc2c(n1)N(C1CCCC1)c1ccccc1C(=O)N2C	72
COc1cc(C(=O)N2CCC(N3CCN(C)CC3)CC2)ccc1Nc1ncc2c(n1)N1CCc3cccc(c31)C(=O)N2C	63
CCOc1cc(C(=O)N2CCC(N3CCN(C)CC3)CC2)ccc1Nc1ncc2c(n1)N(C1CCCC1)c1ccccc1C(=O)N2C	84
COc1cc(C(=O)N2CCC(N3CCN(C)CC3)CC2)ccc1Nc1ncc2c(n1)N(C)c1ccccc1C(=O)N2C	83

====

Entries and their % Ctrl, TNNI3K values follow.
target: panel of 442 kinases (Homo sapiens); construct: purchased KINOMEscan; type: binding; conditions: kinase TNNI3K; compound concentration 10 µM
Reported endpoint: % Ctrl, TNNI3K

COc1cc(C(=O)N2CCC(N3CCN(C)CC3)CC2)ccc1Nc1ncc2c(n1)N1CCc3cccc(c31)C(=O)N2C	73 % Ctrl
CCOc1cc(C(=O)N2CCC(N3CCN(C)CC3)CC2)ccc1Nc1ncc2c(n1)N(C1CCCC1)c1ccccc1C(=O)N2C	89 % Ctrl
COc1cc(C(=O)N2CCC(N3CCN(C)CC3)CC2)ccc1Nc1ncc2c(n1)N(C)c1ccccc1C(=O)N2C	100 % Ctrl
COc1cc(C(=O)N2CCC(N3CCN(C)CC3)CC2)ccc1Nc1ncc2c(n1)N(C1CCCC1)c1ccccc1C(=O)N2C	82 % Ctrl

====

molecular target: panel of 442 kinases (Homo sapiens, UniProt Q9H3Y6); construct: purchased KINOMEscan; type: binding; details: kinase SRMS; compound concentration 10 µM
Sequence (Q9H3Y6 whole entry): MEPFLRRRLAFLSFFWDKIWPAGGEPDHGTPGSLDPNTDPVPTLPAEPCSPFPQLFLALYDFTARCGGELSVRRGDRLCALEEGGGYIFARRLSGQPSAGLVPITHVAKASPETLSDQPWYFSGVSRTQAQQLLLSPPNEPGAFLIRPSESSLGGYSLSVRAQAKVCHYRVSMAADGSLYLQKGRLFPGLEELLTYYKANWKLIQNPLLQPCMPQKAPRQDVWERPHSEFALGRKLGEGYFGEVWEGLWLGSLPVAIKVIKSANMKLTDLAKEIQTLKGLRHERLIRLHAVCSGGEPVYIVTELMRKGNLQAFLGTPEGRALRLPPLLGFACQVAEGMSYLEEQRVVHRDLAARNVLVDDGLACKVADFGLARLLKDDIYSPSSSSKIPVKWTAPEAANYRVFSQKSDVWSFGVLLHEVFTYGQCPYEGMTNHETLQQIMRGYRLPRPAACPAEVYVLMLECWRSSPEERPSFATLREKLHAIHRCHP
Reported endpoint: % Ctrl, SRMS (% Ctrl)

COc1cc(C(=O)N2CCC(N3CCN(C)CC3)CC2)ccc1Nc1ncc2c(n1)N1CCc3cccc(c31)C(=O)N2C	100
CCOc1cc(C(=O)N2CCC(N3CCN(C)CC3)CC2)ccc1Nc1ncc2c(n1)N(C1CCCC1)c1ccccc1C(=O)N2C	82
COc1cc(C(=O)N2CCC(N3CCN(C)CC3)CC2)ccc1Nc1ncc2c(n1)N(C1CCCC1)c1ccccc1C(=O)N2C	100
COc1cc(C(=O)N2CCC(N3CCN(C)CC3)CC2)ccc1Nc1ncc2c(n1)N(C)c1ccccc1C(=O)N2C	77

====

Biological target: panel of 442 kinases (Homo sapiens, UniProt P33981)
Construct: purchased KINOMEscan
Sequence (P33981 1-857): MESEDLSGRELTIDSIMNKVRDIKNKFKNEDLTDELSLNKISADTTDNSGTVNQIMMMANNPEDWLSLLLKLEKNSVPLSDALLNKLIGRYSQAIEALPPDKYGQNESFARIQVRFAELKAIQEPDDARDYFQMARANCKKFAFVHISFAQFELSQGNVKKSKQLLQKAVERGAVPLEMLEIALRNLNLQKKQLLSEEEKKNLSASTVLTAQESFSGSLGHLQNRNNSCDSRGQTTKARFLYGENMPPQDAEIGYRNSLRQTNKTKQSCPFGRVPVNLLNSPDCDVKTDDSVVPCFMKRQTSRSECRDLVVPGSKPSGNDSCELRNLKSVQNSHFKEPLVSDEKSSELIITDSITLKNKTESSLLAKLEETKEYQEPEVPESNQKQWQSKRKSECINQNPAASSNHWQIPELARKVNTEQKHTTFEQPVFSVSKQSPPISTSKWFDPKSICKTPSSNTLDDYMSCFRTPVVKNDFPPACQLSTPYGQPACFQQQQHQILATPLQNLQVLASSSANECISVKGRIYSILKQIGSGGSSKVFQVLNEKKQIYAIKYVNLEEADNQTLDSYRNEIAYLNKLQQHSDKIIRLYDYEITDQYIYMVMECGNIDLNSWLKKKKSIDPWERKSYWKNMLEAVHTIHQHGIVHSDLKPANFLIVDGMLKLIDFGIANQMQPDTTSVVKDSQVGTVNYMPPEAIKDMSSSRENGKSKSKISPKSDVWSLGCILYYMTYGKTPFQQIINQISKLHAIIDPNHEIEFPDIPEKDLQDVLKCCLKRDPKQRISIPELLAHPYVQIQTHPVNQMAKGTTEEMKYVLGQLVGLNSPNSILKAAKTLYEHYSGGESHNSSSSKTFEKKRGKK
Format: binding
Conditions: kinase TTK; compound concentration 10 µM
Reported endpoint: % Ctrl, TTK (% Ctrl)

COc1cc(C(=O)N2CCC(N3CCN(C)CC3)CC2)ccc1Nc1ncc2c(n1)N(C)c1ccccc1C(=O)N2C [15 (LRRK2-IN-1)]	28
COc1cc(C(=O)N2CCC(N3CCN(C)CC3)CC2)ccc1Nc1ncc2c(n1)N1CCc3cccc(c31)C(=O)N2C [Compound 24]	46
COc1cc(C(=O)N2CCC(N3CCN(C)CC3)CC2)ccc1Nc1ncc2c(n1)N(C1CCCC1)c1ccccc1C(=O)N2C [Compound 25]	94
CCOc1cc(C(=O)N2CCC(N3CCN(C)CC3)CC2)ccc1Nc1ncc2c(n1)N(C1CCCC1)c1ccccc1C(=O)N2C [Compound 26]	49

====

Each entry below carries its reported KINOMEscan: MAK.
Molecular target: panel of 442 kinases (Homo sapiens)
Construct: purchased KINOMEscan
Type: binding
Conditions: Compound Concentration 10 µM
Text: We assessed the selectivity of members of this scaffold using the KINOMEscan methodology across a near comprehensive panel of 442 kinases [[18,27]].
Reported endpoint: KINOMEscan: MAK

CCOc1cc(C(=O)N2CCC(N3CCN(C)CC3)CC2)ccc1Nc1ncc2c(n1)N(C1CCCC1)c1ccccc1C(=O)N2C	100
COc1cc(C(=O)N2CCC(N3CCN(C)CC3)CC2)ccc1Nc1ncc2c(n1)N(C)c1ccccc1C(=O)N2C	72
COc1cc(C(=O)N2CCC(N3CCN(C)CC3)CC2)ccc1Nc1ncc2c(n1)N1CCc3cccc(c31)C(=O)N2C	100
COc1cc(C(=O)N2CCC(N3CCN(C)CC3)CC2)ccc1Nc1ncc2c(n1)N(C1CCCC1)c1ccccc1C(=O)N2C	100

====

target: panel of 442 kinases (Homo sapiens); construct: purchased KINOMEscan; format: binding; conditions: Compound Concentration 10 µM
Reported endpoint: KINOMEscan: ROS1

CCOc1cc(C(=O)N2CCC(N3CCN(C)CC3)CC2)ccc1Nc1ncc2c(n1)N(C1CCCC1)c1ccccc1C(=O)N2C	20
COc1cc(C(=O)N2CCC(N3CCN(C)CC3)CC2)ccc1Nc1ncc2c(n1)N(C)c1ccccc1C(=O)N2C	12
COc1cc(C(=O)N2CCC(N3CCN(C)CC3)CC2)ccc1Nc1ncc2c(n1)N1CCc3cccc(c31)C(=O)N2C	24
COc1cc(C(=O)N2CCC(N3CCN(C)CC3)CC2)ccc1Nc1ncc2c(n1)N(C1CCCC1)c1ccccc1C(=O)N2C	3.4

====

Reported % Ctrl, TGFBR2 values for the following compounds.
target: panel of 442 kinases (Homo sapiens); construct: purchased KINOMEscan; assay type: binding; conditions: kinase TGFBR2; compound concentration 10 µM
Reported endpoint: % Ctrl, TGFBR2 (% Ctrl)

COc1cc(C(=O)N2CCC(N3CCN(C)CC3)CC2)ccc1Nc1ncc2c(n1)N1CCc3cccc(c31)C(=O)N2C	100
COc1cc(C(=O)N2CCC(N3CCN(C)CC3)CC2)ccc1Nc1ncc2c(n1)N(C)c1ccccc1C(=O)N2C	100
CCOc1cc(C(=O)N2CCC(N3CCN(C)CC3)CC2)ccc1Nc1ncc2c(n1)N(C1CCCC1)c1ccccc1C(=O)N2C	100
COc1cc(C(=O)N2CCC(N3CCN(C)CC3)CC2)ccc1Nc1ncc2c(n1)N(C1CCCC1)c1ccccc1C(=O)N2C	100

====

target: panel of 442 kinases (Homo sapiens); construct: purchased KINOMEscan; format: binding; conditions: Compound Concentration 10 µM
Reported endpoint: KINOMEscan: EPHA5

COc1cc(C(=O)N2CCC(N3CCN(C)CC3)CC2)ccc1Nc1ncc2c(n1)N(C1CCCC1)c1ccccc1C(=O)N2C	99
CCOc1cc(C(=O)N2CCC(N3CCN(C)CC3)CC2)ccc1Nc1ncc2c(n1)N(C1CCCC1)c1ccccc1C(=O)N2C	100
COc1cc(C(=O)N2CCC(N3CCN(C)CC3)CC2)ccc1Nc1ncc2c(n1)N(C)c1ccccc1C(=O)N2C	95
COc1cc(C(=O)N2CCC(N3CCN(C)CC3)CC2)ccc1Nc1ncc2c(n1)N1CCc3cccc(c31)C(=O)N2C	94

====

Recorded measurements of KINOMEscan: EGFR(G719S), one per entry
molecular target: panel of 442 kinases (Homo sapiens, UniProt P00533, G719S); construct: purchased KINOMEscan; assay type: binding; conditions: Compound Concentration 10 µM
Sequence (P00533 25-1210 G719S): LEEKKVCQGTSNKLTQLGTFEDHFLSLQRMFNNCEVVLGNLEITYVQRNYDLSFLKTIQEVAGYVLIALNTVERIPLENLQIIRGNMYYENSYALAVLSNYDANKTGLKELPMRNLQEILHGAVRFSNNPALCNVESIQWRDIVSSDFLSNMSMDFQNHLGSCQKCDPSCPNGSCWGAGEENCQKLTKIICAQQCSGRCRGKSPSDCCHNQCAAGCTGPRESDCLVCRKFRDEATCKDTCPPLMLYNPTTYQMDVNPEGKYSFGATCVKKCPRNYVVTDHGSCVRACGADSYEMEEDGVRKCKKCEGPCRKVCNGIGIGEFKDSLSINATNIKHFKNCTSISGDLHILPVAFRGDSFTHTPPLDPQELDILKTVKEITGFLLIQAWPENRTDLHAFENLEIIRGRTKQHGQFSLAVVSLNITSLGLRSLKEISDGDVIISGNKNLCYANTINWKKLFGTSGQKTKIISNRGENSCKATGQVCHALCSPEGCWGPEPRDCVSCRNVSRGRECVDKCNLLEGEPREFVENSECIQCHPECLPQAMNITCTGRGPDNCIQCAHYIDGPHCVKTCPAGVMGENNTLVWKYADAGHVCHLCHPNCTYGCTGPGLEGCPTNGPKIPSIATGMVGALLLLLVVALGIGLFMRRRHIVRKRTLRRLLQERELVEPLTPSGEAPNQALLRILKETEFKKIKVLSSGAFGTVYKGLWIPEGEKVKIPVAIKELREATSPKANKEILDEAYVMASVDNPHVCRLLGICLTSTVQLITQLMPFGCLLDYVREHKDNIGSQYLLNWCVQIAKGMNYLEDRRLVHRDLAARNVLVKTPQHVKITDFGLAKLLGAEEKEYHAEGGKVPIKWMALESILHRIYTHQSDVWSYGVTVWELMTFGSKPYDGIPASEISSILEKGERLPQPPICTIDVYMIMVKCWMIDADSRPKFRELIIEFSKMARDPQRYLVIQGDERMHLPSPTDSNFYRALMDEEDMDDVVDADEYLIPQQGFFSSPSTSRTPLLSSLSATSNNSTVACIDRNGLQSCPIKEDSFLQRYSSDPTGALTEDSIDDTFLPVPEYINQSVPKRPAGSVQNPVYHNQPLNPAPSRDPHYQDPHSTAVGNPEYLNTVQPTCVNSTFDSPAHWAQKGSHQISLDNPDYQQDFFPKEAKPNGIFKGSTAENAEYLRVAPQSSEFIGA
Reported endpoint: KINOMEscan: EGFR(G719S)

COc1cc(C(=O)N2CCC(N3CCN(C)CC3)CC2)ccc1Nc1ncc2c(n1)N1CCc3cccc(c31)C(=O)N2C	81
COc1cc(C(=O)N2CCC(N3CCN(C)CC3)CC2)ccc1Nc1ncc2c(n1)N(C)c1ccccc1C(=O)N2C	86
COc1cc(C(=O)N2CCC(N3CCN(C)CC3)CC2)ccc1Nc1ncc2c(n1)N(C1CCCC1)c1ccccc1C(=O)N2C	86
CCOc1cc(C(=O)N2CCC(N3CCN(C)CC3)CC2)ccc1Nc1ncc2c(n1)N(C1CCCC1)c1ccccc1C(=O)N2C	96
